target: purified human HDAC6 (Homo sapiens, UniProt Q9UBN7); construct: purchased BPS Bioscience 5006; assay: HDAC6 Enzyme Assay; format: biochemical; conditions: compound concentration 0.37 μM, read-out: Percent Inhibition
observed_property: inhibition at 0.37 µM (%)
Give the number; % is assumed, so skip it.

Record excerpt, results attached:
O=C(NO)c1ccc2ncn(CCc3cccc(N4CCOCC4)c3)c(=O)c2c1
88.2
CCN1CCC(CCn2ccc3ccc(C(=O)NO)cc3c2=O)CC1
90.1
O=C(NO)c1ccc2c(=O)[nH]c(-c3ccc4ccccc4c3)nc2c1
92
O=C(NO)c1ccc2c(=O)[nH]c(C3CCCCC3)nc2c1
90
O=C(NO)c1ccc2c(=O)n(Cc3ccc(C(F)(F)F)cc3)c(-c3cccc4cccnc34)nc2c1
92.3
O=C(NO)c1ccc2c(=O)n(Cc3ccc(C(F)(F)F)cc3)c(-c3cccnc3)nc2c1
92.2
CC(C)(C)C(=O)NCCCn1ccc2ccc(C(=O)NO)cc2c1=O
91.7
O=C(NO)c1ccc2c(=O)n(Cc3ccc(C(F)(F)F)cc3)c(CC3CCCCC3)nc2c1
65.5

Form field inhibition at 0.37 µM, entry COc1cccc(-c2cccc(Cn3cnc4ccc(C(=O)NO)cc4c3=O)c2)c1 : 90.8

Form field inhibition at 0.37 µM, entry O=C(NO)c1ccc2ccn(CCC(c3ccc(Cl)cc3)C3CCNCC3)c(=O)c2c1 (centres unmarked) : 100

Form field inhibition at 0.37 µM, entry Cc1ccccc1-c1cccc(CCn2cnc3ccc(C(=O)NO)cc3c2=O)c1 : 94.2

Form field inhibition at 0.37 µM, entry CCn1nccc1-c1nc2cc(C(=O)NO)ccc2c(=O)n1Cc1ccc(C(F)(F)F)cc1 : 82.1

Form field inhibition at 0.37 µM, entry CC(C)Cc1nc2cc(C(=O)NO)ccc2c(=O)[nH]1 : 91.7

Form field inhibition at 0.37 µM, entry CN(C)Cc1cn(Cc2ccccc2)c(=O)c2cc(C(=O)NO)ccc12 : 23.2

====

Listed below: inhibition at 0.412 µM values for each entry.
target: purified human HDAC6 (Homo sapiens, UniProt Q9UBN7); construct: purchased BPS Bioscience 5006; experiment: HDAC6 Enzyme Assay; format: biochemical; conditions: compound concentration 0.412 μM, read-out: Percent Inhibition
Give the number; % is assumed, so skip it.

Record excerpt, results attached:
CC(C)(C)OC(=O)N1CCC(Cn2ccc3ccc(C(=O)NO)cc3c2=O)CC1 [Compound I-184]
88.9
CC(C)n1ccc2ccc(C(=O)NO)cc2c1=O [Compound I-171]
87
O=C(NO)c1ccc2ncn(Cc3ccc(C(F)(F)F)cc3C(F)(F)F)c(=O)c2c1 [Compound I-147]
93.2

Form field inhibition at 0.412 µM, entry O=C(NO)c1ccc2ccn(Cc3c(F)c(F)c(F)c(F)c3F)c(=O)c2c1 [Compound I-65] : 93

Form field inhibition at 0.412 µM, entry O=C(NO)c1ccc2ccn(Cc3ccc4nonc4c3)c(=O)c2c1 [Compound I-290] : 98.5

Form field inhibition at 0.412 µM, entry O=C(NO)c1ccc2ncn(Cc3ccccc3Cl)c(=O)c2c1 [Compound I-63] : 93.2

====

Target: purified human HDAC6 (Homo sapiens, UniProt Q9UBN7)
Construct: purchased BPS Bioscience 5006
Sequence (Q9UBN7 1-1215): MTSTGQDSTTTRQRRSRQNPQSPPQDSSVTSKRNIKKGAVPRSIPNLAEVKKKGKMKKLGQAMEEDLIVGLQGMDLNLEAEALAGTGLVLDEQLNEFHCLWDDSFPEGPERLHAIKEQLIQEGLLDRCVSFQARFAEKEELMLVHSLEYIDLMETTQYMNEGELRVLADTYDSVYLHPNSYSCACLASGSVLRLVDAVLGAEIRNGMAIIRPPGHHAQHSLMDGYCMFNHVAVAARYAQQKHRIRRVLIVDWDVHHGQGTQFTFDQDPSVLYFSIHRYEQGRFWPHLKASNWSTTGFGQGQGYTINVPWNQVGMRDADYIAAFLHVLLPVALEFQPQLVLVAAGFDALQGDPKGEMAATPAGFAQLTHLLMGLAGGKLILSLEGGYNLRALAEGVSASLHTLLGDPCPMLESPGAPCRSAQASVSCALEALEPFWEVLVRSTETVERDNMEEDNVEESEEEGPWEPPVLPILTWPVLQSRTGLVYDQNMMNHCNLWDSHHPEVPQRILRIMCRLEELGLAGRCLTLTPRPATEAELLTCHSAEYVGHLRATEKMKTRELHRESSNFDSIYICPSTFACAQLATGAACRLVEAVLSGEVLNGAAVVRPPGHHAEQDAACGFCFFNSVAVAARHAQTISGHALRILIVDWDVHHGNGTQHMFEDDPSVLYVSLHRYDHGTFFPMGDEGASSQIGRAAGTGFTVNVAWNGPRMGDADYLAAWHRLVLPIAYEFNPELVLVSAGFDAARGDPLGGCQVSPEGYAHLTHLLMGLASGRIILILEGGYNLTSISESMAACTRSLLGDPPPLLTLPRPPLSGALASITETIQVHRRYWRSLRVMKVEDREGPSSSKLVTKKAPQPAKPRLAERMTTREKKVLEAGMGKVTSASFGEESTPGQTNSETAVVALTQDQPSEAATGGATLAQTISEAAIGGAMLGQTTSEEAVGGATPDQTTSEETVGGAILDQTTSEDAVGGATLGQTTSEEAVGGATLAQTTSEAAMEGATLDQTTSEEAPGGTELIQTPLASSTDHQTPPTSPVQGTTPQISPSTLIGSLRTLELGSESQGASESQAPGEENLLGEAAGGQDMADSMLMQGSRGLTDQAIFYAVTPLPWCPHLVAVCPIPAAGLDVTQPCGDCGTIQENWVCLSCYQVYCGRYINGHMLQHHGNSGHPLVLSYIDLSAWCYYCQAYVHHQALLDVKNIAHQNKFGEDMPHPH
Assay: HDAC6 Enzyme Assay
Assay type: biochemical
Conditions: compound concentration 0.37 μM, read-out: Percent Inhibition
observed_property: inhibition at 0.37 µM (%)
Give the number; % is assumed, so skip it.

Record excerpt, results attached:
O=C(NO)c1ccc2ncn(CCN3CCCCC3)c(=O)c2c1 [Compound I-41]
73.2
O=C(NO)c1ccc2ncn(CCc3cccc(-c4ccccc4Cl)c3)c(=O)c2c1 [Compound I-314]
93.5

Proceeding to the next compound to report its inhibition at 0.37 µM.
CC(C)C(=O)Nc1cccc(Cn2ccc3ccc(C(=O)NO)cc3c2=O)c1 [Compound I-174] tested on purified human HDAC6 (Homo sapiens, UniProt Q9UBN7) gave inhibition at 0.37 µM: 98.8

Data provenance: patent US8765773B2
